Measured pKd, listed per entry.
biological target: SCRIB_3, Q14160; assay: holdup assay; set-up: key: below the threshold = too weak to quantify, mostly under pKd 3.1 to 4; conditions: plain residues with an end cap or a label only (N-terminal biotin on a linker: ado-ado)
Sequence (Q14160 999-1103): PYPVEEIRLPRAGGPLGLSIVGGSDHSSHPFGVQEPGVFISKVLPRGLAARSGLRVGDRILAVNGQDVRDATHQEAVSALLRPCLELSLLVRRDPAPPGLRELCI
I only need the number, thanks.

Past entries and their recorded results:
FVHPILQSAV [PRKCA, P17252]    4.3
EDLTKNHDEL [RCN1, Q15293]    3.57
GFGEERESIL [KIDINS220, Q9ULH0]    4.56
TETASVCTKV [SLC23A1, Q9UHI7]    3.59

--- query ---
Item: EEPEERHTEL [CES2, O00748] | pKd: 4.89
